Molecular target: Sodium/calcium exchanger 1 (Cavia porcellus) (UniProt P48766)
Sequence (P48766 whole entry, looked up): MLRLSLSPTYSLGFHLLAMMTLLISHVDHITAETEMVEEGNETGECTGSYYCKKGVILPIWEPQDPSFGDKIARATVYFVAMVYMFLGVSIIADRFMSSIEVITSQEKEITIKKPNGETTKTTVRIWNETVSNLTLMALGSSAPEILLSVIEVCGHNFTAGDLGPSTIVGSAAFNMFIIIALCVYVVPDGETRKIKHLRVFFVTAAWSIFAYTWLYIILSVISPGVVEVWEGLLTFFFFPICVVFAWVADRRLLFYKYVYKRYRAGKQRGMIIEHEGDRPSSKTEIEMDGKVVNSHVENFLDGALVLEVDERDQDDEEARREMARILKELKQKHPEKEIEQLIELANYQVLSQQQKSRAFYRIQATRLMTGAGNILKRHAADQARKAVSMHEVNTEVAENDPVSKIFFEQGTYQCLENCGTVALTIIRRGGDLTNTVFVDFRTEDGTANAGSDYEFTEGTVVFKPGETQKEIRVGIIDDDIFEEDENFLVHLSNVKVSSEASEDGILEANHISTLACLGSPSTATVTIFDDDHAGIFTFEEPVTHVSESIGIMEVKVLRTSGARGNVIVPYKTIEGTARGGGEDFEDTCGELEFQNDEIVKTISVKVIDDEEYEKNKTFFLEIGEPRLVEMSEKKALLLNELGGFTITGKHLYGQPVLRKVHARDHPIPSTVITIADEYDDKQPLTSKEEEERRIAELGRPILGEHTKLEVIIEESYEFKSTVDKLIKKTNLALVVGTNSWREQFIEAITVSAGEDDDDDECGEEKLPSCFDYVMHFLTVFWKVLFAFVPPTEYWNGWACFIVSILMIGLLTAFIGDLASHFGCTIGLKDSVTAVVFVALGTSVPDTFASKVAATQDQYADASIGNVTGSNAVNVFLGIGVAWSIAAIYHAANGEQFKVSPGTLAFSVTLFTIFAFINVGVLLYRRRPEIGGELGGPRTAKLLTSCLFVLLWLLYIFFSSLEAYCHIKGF
Test: Inhibitory activity against Sodium/Calcium exchanger in isolated guinea pig left atria
Peptide text beside a SMILES is read from it.
# note: exactly 600 nM is not below, so it is class 0; use class 1 for IC30 strictly under it

{"columns": ["compound", "assigned-class"],
 "data": [
  ["O=C1Nc2ccccc2C(c2ccccc2)N1C1CCN(Cc2ccccc2)CC1 (stereo not given)", "class 1"],
  ["Cc1cccc(CN2CCC(N3C(=O)Nc4ccccc4C3c3ccccc3)CC2)c1 (stereo not given)", "class 1"],
  ["O=C1Nc2ccccc2C(c2ccccc2)N1C1CCN(Cc2ccccc2Cl)CC1 (stereo not given)", "class 0"],
  ["COCc1cccc(CN2CCC(N3C(=O)Nc4ccccc4C3c3ccccc3)CC2)c1 (stereo not given)", "class 1"],
  ["O=C1Nc2ccccc2C(c2ccccc2)N1C1CCN(Cc2cccnc2)CC1 (stereo not given)", "class 1"],
  ["O=C1Nc2ccccc2C(c2ccccc2)N1C1CCN(Cc2ccoc2)CC1 (stereo not given)", "class 1"],
  ["O=C1Nc2ccccc2C(c2ccccc2)N1C1CCN(Cc2cccc(Cl)c2)CC1 (stereo not given)", "class 1"],
  ["COc1cc(CN2CCC(N3C(=O)Nc4ccccc4C3c3ccccc3)CC2)cc(OC)c1OC (stereo not given)", "class 0"],
  ["O=C1Nc2ccccc2C(c2ccccc2)N1C1CCN(Cc2ccncc2)CC1 (stereo not given)", "class 1"],
  ["COc1cccc(CN2CCC(N3C(=O)Nc4ccccc4C3c3ccccc3)CC2)c1 (stereo not given)", "class 1"],
  ["CCOc1cccc(CN2CCC(N3C(=O)Nc4ccccc4C3c3ccccc3)CC2)c1 (stereo not given)", "class 1"],
  ["COc1cc(CN2CCC(N3C(=O)Nc4ccccc4C3c3ccccc3)CC2)cc(OC)c1 (stereo not given)", "class 0"],
  ["O=C1Nc2ccccc2C(c2ccccc2)N1C1CCN(Cc2cccs2)CC1 (stereo not given)", "class 0"],
  ["COc1ccccc1CN1CCC(N2C(=O)Nc3ccccc3C2c2ccccc2)CC1 (stereo not given)", "class 0"],
  ["O=C1Nc2ccccc2C(c2ccccc2)N1C1CCN(Cc2ccco2)CC1 (stereo not given)", "class 0"],
  ["O=C1Nc2ccccc2C(c2ccccc2)N1C1CCN(Cc2ccccn2)CC1 (stereo not given)", "class 1"],
  ["O=C1Nc2ccccc2C(c2ccccc2)N1C1CCN(Cc2ccsc2)CC1 (stereo not given)", "class 0"],
  ["CSCC[C@H](NC(=O)[C@@H](N)C(C)C)C(=O)N[C@@H](CCCN=C(N)N)C(=O)N[C@@H](Cc1ccccc1)C(N)=O (H-VMRF-NH2)", "class 0"],
  ["O=C1Nc2ccccc2C(c2ccccc2)N1C1CCN(Cc2ccc(Cl)cc2)CC1 (stereo not given)", "class 0"],
  ["COc1ccc(CN2CCC(N3C(=O)Nc4ccccc4C3c3ccccc3)CC2)cc1 (stereo not given)", "class 1"]
]}
